- System: U-87 MG
- assay.info: Proliferation-inhibiting effect on tumor cells (SRB / MTT)
- Assay type: cell-based
- recorded.conditions: Homo sapiens, 144 hours, read-out: IC50 (nM, mean ± SD)
outcome.measure: IC50 (nM)
The response must be a number in nM with no trailing unit.

Record CC[C@@]1(O)C(=O)OCc2c1cc1n(c2=O)Cc2c-1nc1ccc(N)c3c1c2C(F)(F)CC3 [Compound 3] . Reported IC50: 3.72

----------
- System: BxPC-3
- assay.info: Proliferation-inhibiting effect on tumor cells (SRB / MTT)
- Assay type: cell-based
- recorded.conditions: Homo sapiens; BxPC-3, 144 hours; read-out: IC50 (nM, mean ± SD)
outcome.measure: IC50

Record `CC[C@@]1(O)C(=O)OCc2c1cc1n(c2=O)Cc2c-1nc1ccc(N)c3c1c2C(F)(F)CC3` . Reported IC50: 0.26 nM
